Exercise: for every item that follows, state its recorded TGI.
test system: TK-10 renal; experiment: NCI tumour cell line growth inhibition, 48 h

# lookup: TGI of COC(=O)C1Cc2ccc(O)c(O)c2CN1 (stereo not given)
> 100 µM

Thanks! And OC1c2ccccc2CCC1CN1CCN(CCOC(c2ccc(F)cc2)c2ccc(F)cc2)CC1 (stereo not given) ?
42.4 µM

Thanks! And "Oc1ccc(Nc2ccc3ccccc3c2)cc1" ?
42.3 µM

Thanks! And CC(CCC[C@H](C)CO)[C@H]1[C@@H](O)C(O)C2[C@@H]3C[C@@H](O)C4(O)C[C@@H](O)CC[C@]4(C)C3CC[C@@]21C (stereo not given in full) ?
> 100 µM

Thanks! And "O=c1c2ccc(S(=O)(=O)c3ccc4c(=O)n5c6ccccc6nc5c5cccc3c45)c3cccc(c32)c2nc3ccccc3n12" ?
50.3 µM

Thanks! And "CC(=O)/C(=C/c1ccccc1)C(=O)CC(C)C" ?
50.5 µM

Thanks! And "CC(=O)c1[nH]c(NC(C)C)c(C(=S)Nc2ccccc2)c1N" ?
> 100 µM

Thanks! And "O=c1c2ccccc2[nH]n1Cc1ccccc1" ?
> 100 µM

Thanks! And "O=S(=O)([O-])c1ccc(N=Cc2ccccc2[O-])cc1.O=S(=O)([O-])c1ccc(N=Cc2ccccc2[O-])cc1.[Co+2]" ?
> 100 µM

Thanks! And CC(CC(=O)N1C(=O)C(C)(C)[C@@H](O)[C@H]1CC(C)C(Cl)(Cl)Cl)C(Cl)(Cl)Cl (stereo not given in full) ?
> 100 µM

###

tested on: SF-295 CNS; experiment: NCI tumour cell line growth inhibition, 48 h
TGI of 90 µM or higher: Y. Under 90 µM: N.

API: above_or_equal(metric=TGI, cutoff=90 µM) for item "COc1cc(CSc2ccc(O)cc2)cc(OC)c1OC"
Y

Thanks! And "Oc1ccc(O)c(-c2cn3c(n2)SCC3)c1" ?
N

Thanks! And "CSC(=NC#N)S/C=C/C(=O)c1ccccc1" ?
Y

Thanks! And "Cc1cccc(Br)[n+]1[O-]" ?
Y

Thanks! And "COc1c(C)cc2c(C(C)C)c(O)c(O)c(C=O)c2c1O" ?
N

Thanks! And COc1cc(C2CC(c3cccc(Nc4ccnc5cc(Cl)ccc45)c3)=NN2c2ccc(Cl)cc2)cc(OC)c1OC (centres undefined) ?
N

Thanks! And "O=C1/C=C/[C@@H](O)[C@@H]2C[C@@H](O)C[C@H]2/C=C/CCC[C@H](CCc2cccc3ccccc23)O1" ?
N

Thanks! And "CC1=CC(C)=NN=C(N)N1S(=O)(=O)c1cc(C)c(Cl)cc1SCc1ccccc1" ?
Y

###

system: LOX IMVI melanoma; assay: NCI tumour cell line growth inhibition, 48 h
Recorded Endpoint: TGI

# lookup: TGI of "CCOP(=O)(OCC)/C(C#N)=C/c1cccn1C(C)C"
> 100 µM

Thanks! And "CO[C@@H]1C=C[C@@]23c4cc5c(cc4CN(C[C@@H]2O)[C@H]3C1)OCO5" ?
80.9 µM

Thanks! And "O=c1[nH]c2ccccc2c2nc3ccccc3n12" ?
> 100 µM

Thanks! And "O=C(Cc1ccccc1F)NC1=C(Cl)C(=O)c2ccccc2C1=O" ?
5.99 µM

Thanks! And "CN(C)CCCN(CCC1CCCCC1)CCC1CCCCC1" ?
2.91 µM

Thanks! And COc1cc(C2C3=C(COC3=O)Oc3cc4c(cc32)OCO4)ccc1O (configuration not stated) ?
> 100 µM

Thanks! And "CCCc1n(Cc2ccc3ccccc3c2)cc[n+]1Cc1ccc2ccccc2c1" ?
2.19 µM

Thanks! And Oc1ccc([C@H]2c3c(O)cc(O)cc3C3c4c(cc(O)cc4[C@@H]2[C@H]2c4cc(O)cc5c4C(c4cc(O)cc(O)c4[C@@H]2c2ccc(O)cc2)[C@@H](c2ccc(O)cc2)O5)O[C@@H]3c2ccc(O)cc2)cc1 (some centres not stated) ?
> 100 µM

Thanks! And "COc1cc(CSc2ccc(O)cc2)cc(OC)c1OC" ?
> 100 µM

Thanks! And COC(=O)c1cc(C(=O)OC)c(CC(=O)C(=O)NC2C3CC4CC(C3)CC2C4)nc1CC(=O)C(=O)NC1C2CC3CC(C2)CC1C3 (configuration not stated) ?
> 100 µM

Thanks! And "Cc1n[nH]c(=S)n(C)c1=S" ?
> 100 µM

Thanks! And "COc1cc(/C=C(\NC(=O)c2ccccc2)c2nc3ccc4c(c3[nH]2)C(=O)c2ccccc2C4=O)cc(OC)c1OC" ?
> 100 µM

Thanks! And "S=C(NCCc1ccccn1)N/N=C/c1ccccn1" ?
22.5 µM

Thanks! And S=C1NC2=C(COc3ccccc32)C(c2ccc(Cl)cc2)N1 (configuration not stated) ?
30.3 µM

Thanks! And "COC(=O)c1c(C(=O)OC)c2ccccn2c1-c1cc(OC)c(Br)c(=O)o1" ?
> 100 µM

Thanks! And "O=C1CSC(=S)N1c1ccco1" ?
> 100 µM

Thanks! And "O=C(O)[C@H](Cc1c[nH]c2ccccc12)N1C(=O)c2ccccc2C1=O" ?
> 100 µM

Thanks! And "CC(=O)Nc1cc2cc(N)ccc2oc1=O" ?
> 100 µM

Thanks! And "O=c1c2ccccc2[nH]n1Cc1ccccc1" ?
> 100 µM

Thanks! And "NNC(=O)CC(=O)Nc1cccc(Cl)c1" ?
> 100 µM

Thanks! And "O=c1c2ccc(S(=O)(=O)c3ccc4c(=O)n5c6ccccc6nc5c5cccc3c45)c3cccc(c32)c2nc3ccccc3n12" ?
> 100 µM

Thanks! And "O=c1[nH]nc(NCc2ccccc2)c2nnn(Cc3ccccc3)c12" ?
> 100 µM

Thanks! And "Cc1cccc(-n2c(N)c(-c3nc4ccccc4[nH]3)sc2=S)c1" ?
58 µM

Thanks! And "CC(=O)/C(=C/c1ccccc1)C(=O)CC(C)C" ?
4.02 µM

Thanks! And "CCOC(=O)/C=C(\C(=O)OCC)n1ccc(=O)n(Cc2cnnn2CCCCOC(C)=O)c1=O" ?
17.6 µM

Thanks! And "COc1cc(Oc2c(C)c(Cl)c(OC)c(Cl)c2OC)c2c(c1Cl)COC2=O" ?
> 100 µM

Thanks! And "CC(=O)Nc1ccc2nc(-c3ccccn3)c(-c3ccccn3)nc2c1" ?
> 100 µM

Thanks! And CC(O)C1(CNc2cc(Cl)nc(N)n2)CCCCC1 (configuration not stated) ?
> 100 µM

Thanks! And "CCOC(=O)c1nc2ccc(C(F)(F)F)cc2nc1Nc1cc(OC)c(OC)c(OC)c1" ?
> 100 µM

Thanks! And CCC(=O)N1C(=O)OCC1C(C)C (configuration not stated) ?
> 100 µM

Thanks! And CSC1(C)C(=O)Nc2c(OCc3ccccc3)cc([N+](=O)[O-])cc21 (configuration not stated) ?
> 100 µM

Thanks! And CC(=O)OC(CC1(C)C(C)CCC23COC(=O)C2=CCCC31)c1ccoc1 (configuration not stated) ?
47.9 µM

Thanks! And "Cc1ccc2oc(=O)cc(/C(=C3/C=CC=N3)c3ccc[nH]3)c2c1" ?
1.41 µM

Thanks! And "Cc1ccc(C(=O)Nc2ccc(CP(=O)(O)O)cc2)cc1NC(=O)c1cccc(N)c1" ?
> 100 µM

Thanks! And COc1cc(C2c3cc4c(cc3[C@@H](Nc3cccc(CO)c3)C3COC(=O)[C@H]23)OCO4)cc(OC)c1O (some centres not stated) ?
3.74 µM

Thanks! And "COc1cc2c(c(OC)c1OC)C(=O)[C@@H]1[C@H]2N1C(=O)NCCCl" ?
> 100 µM

Thanks! And COc1cc(C2CC(c3cccc(Nc4ccnc5cc(Cl)ccc45)c3)=NN2c2ccc(Cl)cc2)cc(OC)c1OC (configuration not stated) ?
> 100 µM

Thanks! And "O=C(Nc1ccc(Cc2ccccc2)cc1)Nc1nn(C(=O)Nc2ccc(Cc3ccccc3)cc2)c2ccccc12" ?
> 100 µM

Thanks! And "CCCCCCCCCCCC(=O)OC[C@H](C[As](=O)(O)O)OC(=O)CCCCCCCCCCC" ?
23.6 µM

Thanks! And "COc1ccc(C2=NN(c3ccccc3)C[N+](c3ccc(C)cc3)=N2)cc1" ?
> 100 µM

Thanks! And "N#Cc1ccc(Cc2ccccn2)cc1Cl" ?
> 100 µM

Thanks! And "O=[N+]([O-])C(/C=C(\Cl)[N+](=O)[O-])=C1Nc2ccccc2N1" ?
> 100 µM

###

system: SK-MEL-2 melanoma; experiment: NCI tumour cell line growth inhibition, 48 h; in the data active = GI50 below about 0.43 µM; inactive = the rest
# valid calls are active, inactive; nothing else

Dear colleague, could you share the recorded outcome for "COc1cc(OC)cc(-c2ccc(-c3ccc(C(=N)N)cn3)o2)c1" when you have a moment?
inactive

Thanks! And "COC(=O)c1ccc2c(c1)C(=O)c1c-2n(CCCCl)c(=O)c2cc([N+](=O)[O-])ccc12" ?
inactive

Thanks! And CSCS(=O)C[C@H](CO)NC(=O)/C=C/c1c(C)[nH]c(=O)[nH]c1=O (stereo not given in full) ?
inactive

Thanks! And "Oc1ccc(Nc2ccc3ccccc3c2)cc1" ?
inactive

Thanks! And "O=C1/C=C/[C@@H](O)[C@@H]2C[C@@H](O)C[C@H]2/C=C/CCC[C@H](CCc2cccc3ccccc23)O1" ?
active
